Target: DNA-PK(h) (Homo sapiens, UniProt P78527)
Assay: Evaluation of inhibitory activity against DNA-PK (HTRF kinase assay, GST-cMyc-p53 substrate)
Format: biochemical
Conditions: compound concentration 0.1 μM; read-out: EXP_VALUE(% Inhibition) DNA-PK(h) 0.1 μM
QUANTITY_NAME: inhibition at 0.1 µM (%)
API: value field is a number in %; no unit string.

Problem: Which inhibition at 0.1 µM value belongs to `C[C@H](Nc1ncnc2[nH]ccc(=O)c12)c1c(Cl)c2cccc(-c3cccc4[nH]ccc34)c2c(=O)n1-c1ccccc1` ?
Solution: 52

Problem: inhibition at 0.1 µM lookup needed for `C[C@H](Nc1ncnc2[nH]ccc(=O)c12)c1c(Cl)c2cccc(-c3ccc(N4CCCC4)cc3)c2c(=O)n1-c1ccccc1` , thanks.
Solution: 79

Problem: Form field: reported inhibition at 0.1 µM of C[C@H](Nc1ncnc2[nH]ccc(=O)c12)c1c(Cl)c2cccc(N3CC4CC=CCC4C3)c2c(=O)n1-c1ccccc1 (stereo partly drawn)
Solution: 28

###

Target: PI3K-δ (PI3K(p1108/p857) (h)) (Homo sapiens, UniProt O00329)
Sequence (O00329 whole entry): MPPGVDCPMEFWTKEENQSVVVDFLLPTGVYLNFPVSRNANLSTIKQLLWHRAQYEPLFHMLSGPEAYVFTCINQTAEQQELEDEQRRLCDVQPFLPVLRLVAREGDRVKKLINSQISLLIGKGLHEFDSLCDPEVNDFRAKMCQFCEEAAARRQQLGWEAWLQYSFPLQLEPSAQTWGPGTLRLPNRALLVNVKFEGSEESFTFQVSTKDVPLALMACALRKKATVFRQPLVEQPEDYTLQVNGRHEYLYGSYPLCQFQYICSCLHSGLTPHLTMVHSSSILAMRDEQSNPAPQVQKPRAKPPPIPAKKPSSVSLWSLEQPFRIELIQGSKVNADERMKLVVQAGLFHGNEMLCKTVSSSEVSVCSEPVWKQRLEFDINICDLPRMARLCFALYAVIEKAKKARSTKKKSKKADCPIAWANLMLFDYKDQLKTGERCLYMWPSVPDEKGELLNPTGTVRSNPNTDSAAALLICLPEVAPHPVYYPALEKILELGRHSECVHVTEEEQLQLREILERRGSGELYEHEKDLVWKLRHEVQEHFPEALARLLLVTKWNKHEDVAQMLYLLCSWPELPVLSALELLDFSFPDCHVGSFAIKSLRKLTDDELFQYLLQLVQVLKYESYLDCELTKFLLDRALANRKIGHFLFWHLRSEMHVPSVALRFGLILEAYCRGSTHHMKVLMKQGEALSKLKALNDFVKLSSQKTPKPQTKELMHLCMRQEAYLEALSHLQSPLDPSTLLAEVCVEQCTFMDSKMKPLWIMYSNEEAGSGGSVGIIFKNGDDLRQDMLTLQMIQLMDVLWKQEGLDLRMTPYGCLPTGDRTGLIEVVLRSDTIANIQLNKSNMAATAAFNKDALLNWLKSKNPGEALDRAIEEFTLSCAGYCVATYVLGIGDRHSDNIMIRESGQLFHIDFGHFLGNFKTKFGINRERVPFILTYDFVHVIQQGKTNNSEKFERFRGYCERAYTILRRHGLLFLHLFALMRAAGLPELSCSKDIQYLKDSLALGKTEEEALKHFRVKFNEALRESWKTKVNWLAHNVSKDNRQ
Sequence (P27986 whole entry partner): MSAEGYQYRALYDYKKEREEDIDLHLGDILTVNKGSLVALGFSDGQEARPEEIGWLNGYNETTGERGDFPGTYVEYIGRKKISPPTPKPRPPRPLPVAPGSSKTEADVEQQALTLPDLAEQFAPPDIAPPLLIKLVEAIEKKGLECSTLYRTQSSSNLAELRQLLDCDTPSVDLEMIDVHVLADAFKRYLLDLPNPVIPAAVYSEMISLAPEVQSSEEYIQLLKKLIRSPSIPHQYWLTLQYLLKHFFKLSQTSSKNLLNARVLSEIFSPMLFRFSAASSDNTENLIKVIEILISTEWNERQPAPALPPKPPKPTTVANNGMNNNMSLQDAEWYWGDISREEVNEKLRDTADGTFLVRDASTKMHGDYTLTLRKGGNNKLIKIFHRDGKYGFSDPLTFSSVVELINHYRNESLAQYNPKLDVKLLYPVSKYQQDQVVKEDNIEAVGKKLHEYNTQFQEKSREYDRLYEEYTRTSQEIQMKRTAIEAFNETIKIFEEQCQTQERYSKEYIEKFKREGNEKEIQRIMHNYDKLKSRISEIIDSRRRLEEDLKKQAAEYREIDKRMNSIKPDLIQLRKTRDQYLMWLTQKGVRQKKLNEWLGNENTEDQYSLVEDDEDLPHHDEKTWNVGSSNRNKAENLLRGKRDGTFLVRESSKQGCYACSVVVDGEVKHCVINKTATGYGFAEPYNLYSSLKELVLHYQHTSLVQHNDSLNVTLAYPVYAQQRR
Test: Evaluation of inhibitory activity against PI3K-δ (HTRF kinase assay)
Format: biochemical
Settings: compound at 0.1 μM; read-out: EXP_VALUE(% Inhibition) PI3K-δ 0.1 μM
Label Y when inhibition at 0.1 µM >= 60%; otherwise N.

Problem: Record `C[C@H](Nc1ncnc2[nH]ccc(=O)c12)c1c(Cl)c2cccc(OCc3ccccn3)c2c(=O)n1-c1ccccc1` ; criterion: inhibition at 0.1 µM no lower than 60%. Met?
Solution: N

Problem: Given `C[C@H](Nc1ncnc2[nH]ccc(=O)c12)c1c(Cl)c2cccc(C(=O)NCc3ccncc3)c2c(=O)n1-c1ccccc1` , state whether its inhibition at 0.1 µM is at least 60%.
Solution: Y

Problem: Please indicate if the recorded inhibition at 0.1 µM for `CC(C)c1ncc(-c2cccc3c(Cl)c([C@H](C)Nc4ncnc5[nH]ccc(=O)c45)n(-c4ccccc4)c(=O)c23)cn1` meets or exceeds 60%.
Solution: Y

Problem: Could you verify whether the entry `C[C@H](Nc1ncnc2[nH]ccc(=O)c12)c1c(Cl)c2cccc(OCc3ccncc3)c2c(=O)n1-c1ccccc1` shows inhibition at 0.1 µM of no less than 60%?
Solution: N

Problem: Assess whether reported inhibition at 0.1 µM for `C[C@H](Nc1ncnc2[nH]ccc(=O)c12)c1c(Cl)c2cccc(S(=O)(=O)c3ccncc3)c2c(=O)n1-c1ccccc1` sits at 60% or higher.
Solution: Y

###

Molecular target: DNA-PK(h) (Homo sapiens)
Assay: Evaluation of inhibitory activity against DNA-PK (HTRF kinase assay, GST-cMyc-p53 substrate)
Format: biochemical
Settings: compound concentration 0.01 μM; read-out: EXP_VALUE(% Inhibition) DNA-PK(h) 0.01 μM
Kindly state inhibition at 0.01 µM for each of the entries shown.
Provide the reading as a plain figure in %.

Problem: Reported inhibition at 0.01 µM, molecule `C[C@H](Nc1ncnc2[nH]ccc(=O)c12)c1c(Cl)c2cccc(-c3cncnc3C3CCCC3)c2c(=O)n1-c1ccccc1` : ____
Solution: 32

Problem: Dear colleague, I am looking for the recorded inhibition at 0.01 µM of the following molecule: `CCOc1ncc(-c2cccc3c(Cl)c([C@H](C)Nc4ncnc5[nH]ccc(=O)c45)n(-c4ccccc4)c(=O)c23)cn1`
Solution: 67

Problem: # inhibition at 0.01 µM lookup, item `Cc1csc(-c2cccc3c(Cl)c([C@H](C)Nc4ncnc5[nH]ccc(=O)c45)n(-c4ccccc4)c(=O)c23)c1`
Solution: 65
